# assay_details: Selectivity index, ratio of CC50 for human MT4 cells to EC50 for HIV1 3B expressing wild type reverse transcriptase
# Type: toxicity
# test_parameters: read-out: Ratio CC50/EC50
quantity_name: selectivity ratio

Example cases with answers are listed next.
smiles: Cc1cc(C)cc(S(=O)(=O)n2c(OCC(=O)Nc3ccccc3Br)nc3ccccc32)c1
val: > 157
//
smiles: Cc1cc(C)cc(S(=O)(=O)n2c(SCC(=O)Nc3ccccc3S(C)(=O)=O)nc3ccccc32)c1
val: < 1
//
smiles: Cc1cc(C)cc(S(=O)(=O)n2c(SCC(=O)Nc3ccccc3Br)nc3ccccc32)c1
val: > 3930

Please turn your attention to the following entry.
Query block: Returns the measured selectivity ratio for the input compound. Input: Cc1cc(C)cc(S(=O)(=O)n2c(OCC(=O)Nc3ccc(S(N)(=O)=O)cc3Cl)nc3ccccc32)c1
Result block: > 908
